biological target: human Cereblon WT GST-tagged protein (Homo sapiens, UniProt Q96SW2); construct: purchased CISBIO 64BDCRBNPEH; test: CRBN-binding affinity, HTRF (CEREBLON BINDING kit); settings: read-out: Inhibition Rate at 2 µM (%)
Sequence (Q96SW2 whole entry): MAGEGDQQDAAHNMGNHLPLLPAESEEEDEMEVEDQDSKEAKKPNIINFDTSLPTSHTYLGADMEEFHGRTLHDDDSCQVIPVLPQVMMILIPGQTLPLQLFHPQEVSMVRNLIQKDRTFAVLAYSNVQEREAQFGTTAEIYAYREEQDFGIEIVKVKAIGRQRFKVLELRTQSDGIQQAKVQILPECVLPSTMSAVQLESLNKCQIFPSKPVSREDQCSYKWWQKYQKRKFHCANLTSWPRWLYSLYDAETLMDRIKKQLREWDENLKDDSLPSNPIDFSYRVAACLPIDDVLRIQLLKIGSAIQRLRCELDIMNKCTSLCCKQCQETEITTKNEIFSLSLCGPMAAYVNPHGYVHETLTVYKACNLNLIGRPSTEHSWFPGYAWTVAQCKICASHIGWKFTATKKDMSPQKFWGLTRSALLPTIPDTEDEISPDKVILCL
Listing: inhibition at 2 µM of selected molecules

Molecule	inhibition at 2 µM
O=C1CCC(N2Cc3cc(CN4CCN(c5cccc(Br)c5)CC4)ccc3C2=S)C(=O)N1 (stereo not shown)	80 to 100%
Cc1ccc(N2CCN(Cc3ccc4c(c3)CN(C3CCC(=O)NC3=O)C4=S)CC2)c(C)c1 (stereo not shown)	60 to 80%
O=C1CCC(N2Cc3c(CN4CCN(c5cc(Cl)ccc5Cl)CC4)cccc3C2=S)C(=O)N1 (stereo not shown)	53 to 60%

Turning now to a further record.
**Query** What does the record list as inhibition at 2 µM for O=C1CCC(N2Cc3cc(CN4CC=C(c5ccnc(Cl)c5Cl)CC4)ccc3C2=S)C(=O)N1 (stereo not shown) ?
**Result** 80 to 100%

====

tested on: Human multiple myeloma cell (MM.1S); test: Tumor cell proliferation inhibition (CellTiter-Meiluncell luminescent cell viability assay); conditions: MM.1S, 500 nM, 96 hours
Test Readout: Inhibition Rate at 500 nM (%)

Compound	Inhibition Rate at 500 nM (%)
O=C1CCC(N2Cc3c(CN4CC=C(c5ccnc(F)c5F)CC4)cccc3C2=S)C(=O)N1 (centres unmarked)	la5
O=C1CCC(N2Cc3cc(CN4CCN(c5ncnc6sc(-c7ccccc7)cc56)CC4)ccc3C2=S)C(=O)N1 (centres unmarked)	la7
O=C1CCC(N2Cc3c(CN4C5CC4CN(c4cccc(Cl)c4Cl)C5)cccc3C2=S)C(=O)N1 (centres unmarked)	la5
O=C1CCC(N2Cc3cc(CN4CCN(c5c(F)c(F)nc(F)c5F)CC4)ccc3C2=S)C(=O)N1 (centres unmarked)	la7
O=C1CCC(N2Cc3cc(CN4CCC(c5c[nH]c6ncccc56)CC4)ccc3C2=S)C(=O)N1 (centres unmarked)	la7
O=C1CCC(N2Cc3c(CN4CCN(c5cccc6sccc56)CC4)cccc3C2=S)C(=O)N1 (centres unmarked)	la8
O=C1CCC(N2Cc3c(CN4CC=C(c5ncccc5F)CC4)cccc3C2=S)C(=O)N1 (centres unmarked)	la5

From here, focus on the item given below.
**Query** Fill blank: measured Inhibition Rate at 500 nM (%) of the compound O=C1CCC(N2Cc3cc(CN4CC=C(c5ccsc5)CC4)ccc3C2=S)C(=O)N1 (centres unmarked) is ____.
**Result** la10

====

target: human Cereblon WT GST-tagged protein (Homo sapiens, UniProt Q96SW2); construct: purchased CISBIO 64BDCRBNPEH; experiment: CRBN-binding affinity, HTRF (CEREBLON BINDING kit); conditions: read-out: Inhibition Rate at 0.5 µM (%)
Test Readout: inhibition at 0.5 µM

Below, each entry is followed by its recorded inhibition at 0.5 µM result.
Compound	Test System	inhibition at 0.5 µM
O=C1CCC(N2Cc3c(CN4CC(c5ccnc6cc(F)ccc56)C4)cccc3C2=S)C(=O)N1 (centres unmarked)	human Cereblon WT GST-tagged protein (Homo sapiens, UniProt Q96SW2)	60 to 80%
O=C1CCC(N2Cc3c(CN4CCN(C(c5ccccc5)c5cccnc5)CC4)cccc3C2=S)C(=O)N1 (centres unmarked)	human Cereblon WT GST-tagged protein (Homo sapiens, UniProt Q96SW2)	30 to 40%
O=C1CCC(N2Cc3c(CN4CCN(c5ccc(F)c(F)c5)CC4)cccc3C2=S)C(=O)N1 (centres unmarked)	human Cereblon WT GST-tagged protein (Homo sapiens, UniProt Q96SW2)	60 to 80%
Cc1nc(C2=CCN(Cc3ccc4c(c3)CN(C3CCC(=O)NC3=O)C4=S)CC2)c2c(-c3ccccc3)csc2n1 (centres unmarked)	human Cereblon WT GST-tagged protein (Homo sapiens, UniProt Q96SW2)	53 to 60%
O=C1CCC(N2Cc3cc(CN4CC=C(c5ncnc6sc7c(c56)CCCC7)CC4)ccc3C2=S)C(=O)N1 (centres unmarked)	human Cereblon WT GST-tagged protein (Homo sapiens, UniProt Q96SW2)	60 to 80%
O=C1CCC(N2Cc3c(CN4CC=C(c5ccnc(F)c5F)CC4)cccc3C2=S)C(=O)N1 (centres unmarked)	human Cereblon WT GST-tagged protein (Homo sapiens, UniProt Q96SW2)	60 to 80%
O=C1CCC(N2Cc3c(CN4CCC(c5ncnc6scc(-c7ccccc7)c56)CC4)cccc3C2=S)C(=O)N1 (centres unmarked)	human Cereblon WT GST-tagged protein (Homo sapiens, UniProt Q96SW2)	53 to 60%
Cc1cccc(N2CCN(Cc3ccc4c(c3)CN(C3CCC(=O)NC3=O)C4=S)CC2)c1 (centres unmarked)	human Cereblon WT GST-tagged protein (Homo sapiens, UniProt Q96SW2)	40 to 53%
CC(C)c1cc2c(C3=CCN(Cc4ccc5c(c4)CN(C4CCC(=O)NC4=O)C5=S)CC3)ncnc2s1 (centres unmarked)	human Cereblon WT GST-tagged protein (Homo sapiens, UniProt Q96SW2)	40 to 53%
O=C1CCC(N2Cc3cc(CN4CCN(c5c(Cl)cncc5Cl)CC4)ccc3C2=S)C(=O)N1 (centres unmarked)	human Cereblon WT GST-tagged protein (Homo sapiens, UniProt Q96SW2)	80 to 100%

**Query** State the recorded inhibition at 0.5 µM for this entry: Cc1sc2ncnc(N3CCN(Cc4cccc5c4CN(C4CCC(=O)NC4=O)C5=S)CC3)c2c1C (centres unmarked)
**Result** 40 to 53%

**Query** inhibition at 0.5 µM lookup needed for O=C1CCC(N2Cc3cc(CN4CCN(c5cccnc5)CC4)ccc3C2=S)C(=O)N1 (centres unmarked) , thanks.
**Result** 60 to 80%

**Query** Give the measured inhibition at 0.5 µM of O=C1CCC(N2Cc3c(CN4CCN(c5cccnn5)CC4)cccc3C2=S)C(=O)N1 (centres unmarked) .
**Result** 60 to 80%

**Query** Which value of inhibition at 0.5 µM has been reported for CC1(C)CCC(CN2C3CCC2CN(Cc2ccc4c(c2)CN(C2CCC(=O)NC2=O)C4=S)C3)=C(c2ccc(Cl)cc2)C1 (centres unmarked) in the records?
**Result** 30 to 40%

**Query** Requested field: inhibition at 0.5 µM. Item: O=C1CCC(N2Cc3c(CN4CCN(c5cccs5)CC4)cccc3C2=S)C(=O)N1 (centres unmarked)
**Result** 60 to 80%

**Query** Name the recorded inhibition at 0.5 µM for O=C1CCC(N2Cc3c(CN4CCN(c5nccc(I)c5F)CC4)cccc3C2=S)C(=O)N1 (centres unmarked) .
**Result** 40 to 53%

**Query** Which inhibition at 0.5 µM is reported for this compound? O=C1CCC(N2Cc3cc(CN4CCN(c5nc(Cl)nc6c5SCC6)CC4)ccc3C2=S)C(=O)N1 (centres unmarked)
**Result** 53 to 60%

====

target: human Cereblon WT GST-tagged protein (Homo sapiens); construct: purchased CISBIO 64BDCRBNPEH; assay: CRBN-binding affinity, HTRF (CEREBLON BINDING kit); details: read-out: Inhibition Rate at 0.5 µM (%)
Test Readout: inhibition at 0.5 µM

Compound	Recorded Result
O=C1CCC(N2Cc3c(CN4CCN(c5cccc(F)c5)CC4)cccc3C2=S)C(=O)N1 (stereo not shown) [GT-08263]	53 to 60%
O=C1CCC(N2Cc3c(CN4CCN(c5ncncn5)CC4)cccc3C2=S)C(=O)N1 (stereo not shown) [GT-08808]	60 to 80%
O=C1CCC(N2Cc3cc(CN4CC5CCC(C4)N5c4cccc(Cl)c4Cl)ccc3C2=S)C(=O)N1 (stereo not shown) [GT-08479]	40 to 53%
O=C1CCC(N2Cc3cc(CN4CCCN(c5cccc(Cl)c5Cl)CC4)ccc3C2=S)C(=O)N1 (stereo not shown) [GT-08481]	60 to 80%
O=C1CCC(N2Cc3c(CN4CCN(c5nsc6cc(F)ccc56)CC4)cccc3C2=S)C(=O)N1 (stereo not shown) [GT-08839]	60 to 80%

**Query** Consider the compound O=C1CCC(N2Cc3c(CN4CCN(c5c(F)cncc5Cl)CC4)cccc3C2=S)C(=O)N1 (stereo not shown) [GT-08802] and give its measured inhibition at 0.5 µM.
**Result** 53 to 60%

**Query** # query: inhibition at 0.5 µM of entry Cc1nc(C2=CCN(Cc3cccc4c3CN(C3CCC(=O)NC3=O)C4=S)CC2)c2c3c(sc2n1)CCC3 (stereo not shown) [GT-08964]
**Result** 53 to 60%

**Query** Looking for the measured inhibition at 0.5 µM of Cc1cc2c(N3CCN(Cc4cccc5c4CN(C4CCC(=O)NC4=O)C5=S)CC3)ncnc2s1 (stereo not shown) [GT-08914] , can you help?
**Result** 60 to 80%

====

Reported inhibition at 0.5 µM values for a set of compounds
target: human Cereblon WT GST-tagged protein (Homo sapiens, UniProt Q96SW2); construct: purchased CISBIO 64BDCRBNPEH; assay: CRBN-binding affinity, HTRF (CEREBLON BINDING kit); conditions: read-out: Inhibition Rate at 0.5 µM (%)

Compound	inhibition at 0.5 µM
O=C1CCC(N2Cc3c(CN4CCN(c5nsc6ccccc56)CC4)cccc3C2=S)C(=O)N1 (stereo not shown) [GT-08366]	60 to 80%
O=C1CCC(N2Cc3cc(CN4CCN(c5ccc(F)c(F)c5)CC4)ccc3C2=S)C(=O)N1 (stereo not shown) [GT-08627]	60 to 80%
CC1(C)CCC(CN2C3CC2CN(Cc2ccc4c(c2)CN(C2CCC(=O)NC2=O)C4=S)C3)=C(c2ccc(Cl)cc2)C1 (stereo not shown) [GT-08161]	40 to 53%

**Query** I'm curious: which inhibition at 0.5 µM was measured for Cc1ccc(N2CCN(Cc3ccc4c(c3)CN(C3CCC(=O)NC3=O)C4=S)CC2)cc1 (stereo not shown) [GT-08603] tested on human Cereblon WT GST-tagged protein (Homo sapiens, UniProt Q96SW2)?
**Result** 53 to 60%

**Query** Report inhibition at 0.5 µM for O=C1CCC(N2Cc3cc(CN4CCN(c5ccc(F)cn5)CC4)ccc3C2=S)C(=O)N1 (stereo not shown) [GT-09222] tested on human Cereblon WT GST-tagged protein (Homo sapiens, UniProt Q96SW2).
**Result** 60 to 80%

**Query** Provide the documented inhibition at 0.5 µM with human Cereblon WT GST-tagged protein (Homo sapiens, UniProt Q96SW2) as the system for O=C1CCC(N2Cc3cc(CN4CC=C(c5cccc6c(F)cccc56)CC4)ccc3C2=S)C(=O)N1 (stereo not shown) [GT-09276]
**Result** 40 to 53%
